Cited source for all entries: ChEMBL document CHEMBL3867428

# experiment: Antiinflammatory activity in […] cells assessed as inhibition of LPS-induced NO production at 1 uM preincubated with compound followed by LPS stimulation after 24 hrs
# Type: functional
# details: Mus musculus, BV-2
Known inhibition at 1 µM of a selection of compounds

Sample answers from the record:
compound	inhibition at 1 µM
C[C@@H]1C(=O)C=CC2=C[C@@H](O)[C@H](O)C[C@@]21C	16.1%
COc1cc(/C=C/C(=O)CC(=O)/C=C/c2ccc(O)c(OC)c2)ccc1O [CURCUMIN]	12.9%
C=C(C)[C@@H]1C[C@@]2(C)C(=C[C@@H](O)[C@H](O)[C@@H]2C)[C@@H](O)[C@H]1O	18.3%

Read the next record carefully.
Could you tell me which inhibition at 1 µM is on file for C=C(C)[C@]1(O)C[C@@]2(C)C(=C[C@H]1O)C=CC(=O)[C@@H]2C ?
10.2%

---

Property: IC50; scope: individual compounds
# experiment: Cytotoxicity against human HeLa cells assessed as reduction in cell viability after 96 hrs by MTT assay
# Assay type: functional, cell-based

compound	experimentalResult
CC(=O)O[C@H]1C(=O)[C@@]2(C)[C@H]([C@H](OC(=O)c3ccccc3)[C@]3(O)C[C@H](OC(=O)[C@H](O)[C@@H](NC(=O)c4ccccc4)c4ccccc4)C(C)=C1C3(C)C)[C@]1(OC(C)=O)CO[C@@H]1C[C@@H]2O [PACLITAXEL]	0.0064 µM

Please find the next compound below.
Could you tell me which IC50 is on file for C[C@H]1C(=O)C=CC2=C[C@@H](O)[C@H](O)C[C@@]21C ?
16.5 µM
